- systemUnderTest: TNF-alpha (UniProt P01375 77-233)
- Sequence (P01375 77-233): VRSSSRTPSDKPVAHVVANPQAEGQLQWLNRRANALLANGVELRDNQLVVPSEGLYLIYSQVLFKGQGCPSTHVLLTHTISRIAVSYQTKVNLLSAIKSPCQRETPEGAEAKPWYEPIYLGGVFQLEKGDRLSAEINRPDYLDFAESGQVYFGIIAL
- testProtocol: graphene FET (Hill-Langmuir fit); 1000 Da PEG, 1x PBS; 1x PBS, artificial sweat (10x diluted or undiluted) or undiluted lavage fluid; aptamer immobilized on graphene; pH and temperature not stated
- runParameters: protein: commercial; chain copies: 3; G-quadruplex, two G-tetrads
readout: Kd (nM)
Give the number; nM is assumed, so skip it.

Q: Please give the documented Kd of TGGTGGATGGCGCAGTCGGCGACAA (ssDNA, 5'-NH2) [TNF-alpha aptamer]
Ans: 1.52
